# measurementTarget: purified calpain 1 (Homo sapiens, UniProt P07384)
# Sequence (P07384 1-714): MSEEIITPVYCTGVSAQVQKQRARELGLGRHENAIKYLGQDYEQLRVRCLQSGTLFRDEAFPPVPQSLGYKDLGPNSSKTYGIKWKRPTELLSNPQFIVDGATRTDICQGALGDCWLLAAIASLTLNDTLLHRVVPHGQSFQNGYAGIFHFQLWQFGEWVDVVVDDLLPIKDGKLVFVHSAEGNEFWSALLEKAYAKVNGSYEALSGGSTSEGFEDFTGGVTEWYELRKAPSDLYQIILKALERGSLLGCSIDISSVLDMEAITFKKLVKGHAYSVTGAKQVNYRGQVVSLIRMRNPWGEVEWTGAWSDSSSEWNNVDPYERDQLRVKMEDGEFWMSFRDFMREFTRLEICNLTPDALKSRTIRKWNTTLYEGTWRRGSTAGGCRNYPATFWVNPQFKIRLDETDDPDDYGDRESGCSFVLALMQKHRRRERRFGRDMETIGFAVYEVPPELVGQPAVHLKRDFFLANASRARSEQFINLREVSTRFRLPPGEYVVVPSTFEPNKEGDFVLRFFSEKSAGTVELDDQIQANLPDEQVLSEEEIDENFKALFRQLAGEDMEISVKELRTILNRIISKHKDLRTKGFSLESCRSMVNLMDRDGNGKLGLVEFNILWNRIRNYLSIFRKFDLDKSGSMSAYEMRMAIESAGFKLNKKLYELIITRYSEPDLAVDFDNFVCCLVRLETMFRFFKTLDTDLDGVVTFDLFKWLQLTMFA
# Sequence (P04632 1-268 partner): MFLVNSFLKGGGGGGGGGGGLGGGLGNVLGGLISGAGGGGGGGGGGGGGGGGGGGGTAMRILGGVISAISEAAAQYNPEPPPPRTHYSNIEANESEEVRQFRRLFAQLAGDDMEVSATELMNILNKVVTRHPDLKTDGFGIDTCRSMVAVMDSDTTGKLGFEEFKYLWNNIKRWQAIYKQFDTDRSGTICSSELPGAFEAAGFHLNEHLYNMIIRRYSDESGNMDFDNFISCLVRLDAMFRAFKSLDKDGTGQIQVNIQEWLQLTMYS
# assayRemarks: Calpain 1 activity, sLLVY-AMC hydrolysis with purified calpain 1
# Assay type: biochemical

{"compound": "CCCC[C@@H](C=O)NC(=O)[C@H](CC(C)C)NC(=O)OCc1ccccc1 [Calpeptin, Z-Leu-Nle-CHO]", "IC50": "~0.04 µM"}
